B1: glmS ribozyme (parent)
chain: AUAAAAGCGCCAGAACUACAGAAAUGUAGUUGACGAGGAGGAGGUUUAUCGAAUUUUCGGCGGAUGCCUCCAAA

# Variants of: B1
# assay.name: self-cleavage kobs at 2500 uM GlcN6P; higher = faster cleavage; RNA array
# measurement.setup: with glucosamine-6-phosphate
Variants at the floor of the assay were thinned out.
assay.endpoint: self-cleavage kobs at 2500 uM GlcN6P

Respectfully, I request self-cleavage kobs at 2500 uM GlcN6P for each entry included below.
1. G38A U46G
2. G41U C71G
3. G37U A42U A53G
4. G38U U54G C71A
5. A15C G43A G44U G59U

[reply]
< 1e-05 s⁻¹
8.28e-05 s⁻¹
< 1e-05 s⁻¹
< 1e-05 s⁻¹
< 1e-05 s⁻¹

List reported self-cleavage kobs at 2500 uM GlcN6P for each of these variants:
1. C8U A36U C50U
2. G7C G9C
3. A42C U54A

[reply]
< 1e-05 s⁻¹
< 1e-05 s⁻¹
< 1e-05 s⁻¹

List the reported self-cleavage kobs at 2500 uM GlcN6P of each variant below.
1. C67U U69A
2. U31G G32U C71U
3. G40C U45G
4. C10G A42C U45G
5. G40U C50A G66U
6. U46A G60C

[reply]
1: 4.79e-05 s⁻¹; 2: 0.000775 s⁻¹; 3: 0.000445 s⁻¹; 4: < 1e-05 s⁻¹; 5: < 1e-05 s⁻¹; 6: < 1e-05 s⁻¹

Please state, for each entry, its recorded self-cleavage kobs at 2500 uM GlcN6P.
1. G37C G62U C68U
2. A6U C10G A36C
3. U46G U65A

[reply]
< 1e-05 s⁻¹
< 1e-05 s⁻¹
0.00212 s⁻¹
